# Lookup of reported pIC50 keyed by entry
# system name: SARS-CoV-2 PLpro (Severe acute respiratory syndrome coronavirus 2)
# Construct: containing 60 nM papain-like protease
# assay summary: biochemical
# experimental parameters: 60 nM papain-like protease, 50 μM Z-RLRGG-AMC, pH 7.5, 37° C.; read-out: SARS-CoV-2 PLpro IC50
pIC50: −log10 of the molar value. Structures can show the parent of a compound that is named as a salt.

Some solved entries appear below for comparison.
{"compound": "Cc1ccc(N2CCN(C)CC2)cc1C(=O)N[C@H](C)c1cccc(-c2ccncc2)c1", "pIC50": "> 5.70"}
{"compound": "Cc1ccc(N2CCN(C)CC2)cc1C(=O)N[C@H](C)c1cccc(-c2ccccc2)c1", "pIC50": "> 5.70"}

Lab request: please report pIC50 under test system SARS-CoV-2 PLpro (Severe acute respiratory syndrome coronavirus 2) for "Cc1ccc([C@@H](C)NC(=O)c2cc(N3CCN(C)CC3)ccc2C)cc1Br"
> 5.70

Cool, now C[C@@H](NC(=O)c1cccc(N2CCNCC2)c1)c1cccc2ccccc12 [Example 158, Hydrochloride Salt]
> 5.30
